target: AEA-DA lipid probe targets in Neuro2a cells (Mus musculus, UniProt Q8R404); conditions: competitor 25 μM
Sequence (Q8R404 whole entry): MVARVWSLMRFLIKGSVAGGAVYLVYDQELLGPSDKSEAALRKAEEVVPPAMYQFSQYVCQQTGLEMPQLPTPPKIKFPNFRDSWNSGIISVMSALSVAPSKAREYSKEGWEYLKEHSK
measured property: SILAC ratio, Qil1
Number only, please.

{"columns": ["compound", "system tested", "measured property", "recorded number"],
 "data": [
  ["C=CCN(C)CCCCCCOc1ccc(C(=O)c2ccc(Br)cc2)c(F)c1 [Ro 48-8071, reference compound]", "AEA-DA lipid probe targets in Neuro2a cells (Mus musculus, UniProt Q8R404)", "SILAC ratio, Qil1", 1.2],
  ["CN1CCN(C(=O)c2c(-c3ccccc3)c3cc([N+](=O)[O-])ccc3n2C)CC1", "AEA-DA lipid probe targets in Neuro2a cells (Mus musculus, UniProt Q8R404)", "SILAC ratio, Qil1", 1.5],
  ["O=C(/C=C/c1cccnc1)NCCCCC1CCN(C(=O)c2ccccc2)CC1 [FK-866, reference compound]", "AEA-DA lipid probe targets in Neuro2a cells (Mus musculus, UniProt Q8R404)", "SILAC ratio, Qil1", 1.2]
]}

Ask: Report SILAC ratio, Qil1 for CN1CCN(C(=O)c2[nH]c3ccc([N+](=O)[O-])cc3c2-c2ccccc2)CC1
Result: 1.5
